Test system: Enterococcus faecalis
Assay overview: Antibacterial activity against Enterococcus faecalis ATCC 19433 assessed as bacterial growth inhibition incubated for 18 hrs by micro-dilution broth method
Format: functional
Parameter: log10 of MIC (log10 of the value in µg/mL)
All values: log10 MIC [µg/mL].

Sample answers from the record:
Smiles representation: CN[C@H](CC(C)C)C(=O)N[C@H]1C(=O)N[C@@H](CC(N)=O)C(=O)N[C@H]2C(=O)N[C@H]3C(=O)N[C@H](C(=O)N[C@H](C(=O)O)c4cc(O)cc(O)c4-c4cc3ccc4O)[C@H](O)c3ccc(c(Cl)c3)Oc3cc2cc(c3O[C@@H]2O[C@H](CO)[C@@H](O)[C@H](O)[C@H]2O[C@H]2C[C@](C)(N)[C@H](O)[C@H](C)O2)Oc2ccc(cc2Cl)[C@H]1O
System name: Enterococcus faecalis
Parameter: log10 of MIC
Readout value: 0.00
--
Smiles representation: CNC(=O)NCCCCCCCCNC(=N)NCC1CC1.O=C(O)C(F)(F)F
System name: Enterococcus faecalis
Parameter: log10 of MIC
Readout value: 1.81
--
Smiles representation: N=C(N)NCCCCCCCCN(CCCCCCCCN)C(=O)N(CCCCCCCCN)CCCCCCCCNC(=N)N.O=C(O)C(F)(F)F
System name: Enterococcus faecalis
Parameter: log10 of MIC
Readout value: 0.90

Entry N=C(N)NCCCCCCCCN(CCCCCCCCNC(=N)N)C(=O)N(CCCCCCCCN)CCCCCCCCN has what log10 of MIC? 0.90

Entry N=C(N)NCCCCCCCCN(CCCCCCCCNC(=N)N)C(=O)N(CCCCCCCCNC(=N)N)CCCCCCCCNC(=N)NCC1CC1.O=C(O)C(F)(F)F has what log10 of MIC? 0.30

Entry CCCCCCCCCC(=O)N[C@@H](Cc1c[nH]c2ccccc12)C(=O)N[C@H](CC(N)=O)C(=O)N[C@@H](CC(=O)O)C(=O)N[C@@H]1C(=O)NCC(=O)N[C@@H](CCCN)C(=O)N[C@@H](CC(=O)O)C(=O)N[C@H](C)C(=O)N[C@@H](CC(=O)O)C(=O)NCC(=O)N[C@H](CO)C(=O)N[C@@H]([C@H](C)CC(=O)O)C(=O)N[C@@H](CC(=O)c2ccccc2N)C(=O)O[C@@H]1C has what log10 of MIC? 0.00

Entry CCCCCCCCN(CCCCCCCC)C(=O)N(CCCCCCCC)CCCCCCCCNC(=N)NCC1CC1.O=C(O)C(F)(F)F has what log10 of MIC? 2.11

Entry N=C(NCCCCCCCCNC(=O)NCCCCCCCCNC(=N)NCC1CC1)NCC1CC1 has what log10 of MIC? 1.81

Entry CCCCCCCCN(CCCCCCCCNC(=N)NCC1CC1)C(=O)N(CCCCCCCCNC(=N)NCC1CC1)CCCCCCCCNC(=N)NCC1CC1 has what log10 of MIC? 0.30

Entry N=C(N)NCCCCCCCCN(CCCCCCCCN)C(=O)N(CCCCCCCCNC(=N)N)CCCCCCCCNC(=N)N has what log10 of MIC? 0.60

Entry CCCCCCN(CCCCCCNC(=N)NCC1CC1)C(=O)N(CCCCCCCCNC(=N)NCC1CC1)CCCCCCNC(=N)NCC1CC1 has what log10 of MIC? 0.30

Entry N=C(NCCCCCCCCN(CCCCCCCCNC(=N)NCC1CC1)C(N)=O)NCC1CC1.O=C(O)C(F)(F)F has what log10 of MIC? 1.20

Entry N=C(NCCCCCCCCNC(N)=O)NCC1CC1.O=C(O)C(F)(F)F has what log10 of MIC? 0.00

Entry N=C(NCCCCCCCCNC(=O)N(CCCCCCCCNC(=N)NCC1CC1)CCCCCCCCNC(=N)NCC1CC1)NCC1CC1.O=C(O)C(F)(F)F has what log10 of MIC? 0.90

Entry CCCCCCCCN(CCCCCCCCNC(=N)NCC1CC1)C(=O)N(CCCCCCCC)CCCCCCCCNC(=N)NCC1CC1.O=C(O)C(F)(F)F has what log10 of MIC? 1.51

Entry N=C(N)NCCCCCCCCN(CCCCCCCCNC(=N)NCC1CC1)C(=O)N(CCCCCCCCNC(=N)NCC1CC1)CCCCCCCCNC(=N)NCC1CC1.O=C(O)C(F)(F)F has what log10 of MIC? 0.00

Entry NCCCCCCCCN(CCCCCCCCN)C(=O)N(CCCCCCCCN)CCCCCCCCN has what log10 of MIC? 1.20

Entry N=C(N)NCCCCCCCCN(CCCCCCCCN)C(=O)N(CCCCCCCCN)CCCCCCCCN has what log10 of MIC? 1.51
